- Measured Target: β-amyloid1-42, P05067
- Assay Notes: cell-based or functional assay
Value Kind: ACh rel % Inh @ 100 µM (%)
Expressed in %, but write only the number.

Can you look up the measured ACh rel % Inh @ 100 µM of Ac-SERFYACCKEP-NH2 (cysteine pairing not given here) for me?
14

Can you look up the measured ACh rel % Inh @ 100 µM of Ac-SERFYEACKEP-NH2 for me?
19

Can you look up the measured ACh rel % Inh @ 100 µM of Ac-SERFYECCAEP-NH2 (cysteine pairing not given here) for me?
19
